From: ChEMBL document CHEMBL1201862

- study.target: DNA repair and recombination protein RAD54-like (Homo sapiens, UniProt Q92698)
- Sequence (Q92698 whole entry): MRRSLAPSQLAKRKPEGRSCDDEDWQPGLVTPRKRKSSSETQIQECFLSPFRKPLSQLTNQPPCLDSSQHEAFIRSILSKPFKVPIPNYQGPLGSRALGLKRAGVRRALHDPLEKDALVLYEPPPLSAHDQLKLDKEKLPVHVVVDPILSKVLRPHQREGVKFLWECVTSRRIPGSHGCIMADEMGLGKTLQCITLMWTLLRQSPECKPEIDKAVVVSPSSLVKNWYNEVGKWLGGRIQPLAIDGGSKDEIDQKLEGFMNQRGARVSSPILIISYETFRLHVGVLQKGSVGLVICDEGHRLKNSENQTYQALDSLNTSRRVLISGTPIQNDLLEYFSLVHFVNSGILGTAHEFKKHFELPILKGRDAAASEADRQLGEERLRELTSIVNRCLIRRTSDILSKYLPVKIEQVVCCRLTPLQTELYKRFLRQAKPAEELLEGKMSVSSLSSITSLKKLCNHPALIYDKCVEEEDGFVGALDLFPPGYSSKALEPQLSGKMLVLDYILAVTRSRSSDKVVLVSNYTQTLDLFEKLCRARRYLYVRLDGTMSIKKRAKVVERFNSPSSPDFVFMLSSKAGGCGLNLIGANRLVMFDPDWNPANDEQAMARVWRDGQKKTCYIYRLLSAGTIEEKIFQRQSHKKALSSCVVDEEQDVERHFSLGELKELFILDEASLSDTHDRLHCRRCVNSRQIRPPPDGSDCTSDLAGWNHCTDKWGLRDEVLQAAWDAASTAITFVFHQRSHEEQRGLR
- procedure.details: RAD54 Holliday junction migration blockers – biochemical, fluorescence, cherry-picked samples, dose series, confirmation (AID 651657)
- Type: functional
The source made the active and inactive calls.
Classes used: TRUE for active, FALSE for inactive

INSERT INTO assay_data (smiles_input, study_target, category_label) VALUES
  ('COc1ccc2nc(C)cc(Nc3ccc(N4CCN(C)CC4)cc3)c2c1', 'DNA repair and recombination protein RAD54-like (Homo sapiens, UniProt Q92698)', 'TRUE'),
  ('OCCCNc1c2ccccc2nc2ccccc12', 'DNA repair and recombination protein RAD54-like (Homo sapiens, UniProt Q92698)', 'TRUE'),
  ('CCN(CC)CC(=O)Nc1cccc2c1C(=O)c1ccccc1C2=O', 'DNA repair and recombination protein RAD54-like (Homo sapiens, UniProt Q92698)', 'FALSE'),
  ('Cc1c(-c2cc(Br)ccc2O)nc2cc3c(cc2c1C)OCO3', 'DNA repair and recombination protein RAD54-like (Homo sapiens, UniProt Q92698)', 'TRUE');

====

- study.target: Long-chain-fatty-acid--AMP ligase FadD28 (Mycobacterium tuberculosis)
- Sequence (P9WQ59 whole entry): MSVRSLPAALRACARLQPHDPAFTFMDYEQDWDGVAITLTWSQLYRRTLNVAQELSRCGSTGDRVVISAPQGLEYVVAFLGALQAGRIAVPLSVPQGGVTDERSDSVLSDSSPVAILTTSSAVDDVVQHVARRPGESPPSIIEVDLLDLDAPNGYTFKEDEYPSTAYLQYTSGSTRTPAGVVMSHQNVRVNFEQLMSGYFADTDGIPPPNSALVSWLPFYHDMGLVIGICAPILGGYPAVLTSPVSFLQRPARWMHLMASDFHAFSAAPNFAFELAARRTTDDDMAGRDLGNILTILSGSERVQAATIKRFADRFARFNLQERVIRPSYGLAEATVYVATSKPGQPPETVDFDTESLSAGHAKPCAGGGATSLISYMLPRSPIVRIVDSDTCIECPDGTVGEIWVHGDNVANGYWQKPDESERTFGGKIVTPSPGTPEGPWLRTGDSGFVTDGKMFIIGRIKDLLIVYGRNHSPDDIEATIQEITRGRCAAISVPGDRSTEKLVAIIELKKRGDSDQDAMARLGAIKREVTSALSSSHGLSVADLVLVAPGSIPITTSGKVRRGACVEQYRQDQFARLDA
- procedure.details: Fluorescence polarization aasay to screen for inhibitors that compete for the binding of FadD28 to a bisubstrate Measured in Biochemical System Using Plate Reader - 2147-01_Inhibitor_Dose_CherryPick_Activity.
- Assay type: functional, Mycobacterium tuberculosis H37Rv
Calls of active or inactive are those of the source.
Classes used: active, inactive

INSERT INTO assay_data (smiles_input, category_label) VALUES
  ('COc1cc(/C=N/NC(N)=S)ccc1OCc1ccc(C)cc1', 'active'),
  ('CCn1c(CSc2nnc(-c3ccncc3)n2C)nc2cc(C(=O)O)ccc21', 'inactive'),
  ('Cc1c2c(=O)n(-c3nc4ccccc4s3)nc-2cc(O)n1Cc1ccccc1', 'active'),
  ('C[C@H](CO)N1C[C@H](C)[C@@H](CN(C)S(=O)(=O)c2cccs2)Oc2ccc(NC(=O)Nc3ccc(C(F)(F)F)cc3)cc2C1=O', 'inactive'),
  ('O=C(Nc1ccc(Cl)cc1)N[C@@H]1c2c(ccc3ccccc23)OC[C@@H]1CO', 'active'),
  ('O=C(Cn1nnc(-c2ccc3c(c2)OCO3)n1)Nc1ccccc1C(=O)O', 'inactive');

====

- study.target: Short transient receptor potential channel 4 (Mus musculus, UniProt Q9QUQ5)
- Sequence (Q9QUQ5 whole entry): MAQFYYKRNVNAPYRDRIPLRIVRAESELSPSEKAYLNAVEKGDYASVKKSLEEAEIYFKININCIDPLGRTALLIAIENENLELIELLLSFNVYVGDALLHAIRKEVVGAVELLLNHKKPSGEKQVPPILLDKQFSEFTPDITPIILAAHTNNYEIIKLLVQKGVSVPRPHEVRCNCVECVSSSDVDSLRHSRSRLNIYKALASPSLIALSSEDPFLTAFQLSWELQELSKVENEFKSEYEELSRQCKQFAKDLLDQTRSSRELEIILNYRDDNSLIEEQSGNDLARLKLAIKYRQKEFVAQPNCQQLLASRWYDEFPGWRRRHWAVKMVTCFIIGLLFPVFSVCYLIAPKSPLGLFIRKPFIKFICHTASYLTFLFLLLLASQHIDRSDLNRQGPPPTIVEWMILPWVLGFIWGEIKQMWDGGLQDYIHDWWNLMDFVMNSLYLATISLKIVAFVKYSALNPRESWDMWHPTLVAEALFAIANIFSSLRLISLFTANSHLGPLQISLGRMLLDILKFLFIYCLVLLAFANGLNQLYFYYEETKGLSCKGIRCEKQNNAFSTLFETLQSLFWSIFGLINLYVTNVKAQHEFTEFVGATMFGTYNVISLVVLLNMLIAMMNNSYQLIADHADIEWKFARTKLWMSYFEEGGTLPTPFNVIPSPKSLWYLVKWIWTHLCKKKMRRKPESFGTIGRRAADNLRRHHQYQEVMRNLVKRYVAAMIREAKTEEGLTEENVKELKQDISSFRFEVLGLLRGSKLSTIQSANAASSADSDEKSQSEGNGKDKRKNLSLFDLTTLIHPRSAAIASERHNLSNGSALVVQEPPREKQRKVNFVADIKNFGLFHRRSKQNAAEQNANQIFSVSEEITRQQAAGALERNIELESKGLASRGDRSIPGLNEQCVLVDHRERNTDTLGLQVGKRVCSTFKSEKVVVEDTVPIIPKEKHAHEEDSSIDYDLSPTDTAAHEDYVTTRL
- procedure.details: calcium entry via TRPC4 opening agents – cell-based, HEK293 TRPC4/mu-opioid, Fluo-4 calcium, dose response (AID 434937)
- Format: functional
Active and inactive are the calls of the source.
EC50 by entry:
reported.metric: EC50

INSERT INTO measurements (smiles_input, reported_metric, test_result) VALUES
  ('O=S(=O)(NCCc1csc(-c2ccccc2)n1)c1cccnc1', 'EC50', '3760 nM (active)'),
  ('Cc1sc2ncnc(NCC(C)(C)N3CCOCC3)c2c1C', 'EC50', '841 nM (active)'),
  ('CN(C)CCCN(C(=O)c1ccc(S(=O)(=O)N2CCc3ccccc32)cc1)c1nc2ccc(F)cc2s1', 'EC50', '2660 nM (active)'),
  ('O=C(NCCc1ccccn1)c1ccc(OC2CCN(CCc3ccccc3)CC2)cc1', 'EC50', '1190 nM (active)'),
  ('Cc1csc2c(N3CCN(C(S)=Nc4ccc(C(F)(F)F)cc4)CC3)ncnc12', 'EC50', '1680 nM (active)');

====

IC50 by entry:
- System: H9c2;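 further: cell death induced by hydrogen peroxide oxidative stress; compound pretreatment for 60 min then peroxide exposure for 2 h; potency is for protecting the cells against peroxide damage rather than for killing them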;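 further: confirmatory concentration-response retest of ultra-high-throughput screening hits for modulation of myocardial damage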
- procedure.details: cells
- Format: functional, cell-based
- stated.conditions: Rattus norvegicus, H9c2, Myocardium
Calls of active or inactive are those of the source.
reported.metric: IC50

INSERT INTO results (molecule, test_result) VALUES
  ('CC(OC(=O)Cc1nnc(O)c2ccccc12)C(=O)Nc1cc(Cl)cc(Cl)c1 (stereo not given)', '20.8 µM (active)'),
  ('O=C(NCCc1ccc(F)cc1)C(=O)Nc1cc2c3c(c1)CC(=O)N3CCC2', '> 79 µM (inactive)'),
  ('CCOc1cc(/C=N\NC(=O)c2ccc(NC(=O)C(C)(C)C)cc2)ccc1OC(=O)c1cccc(C)c1', '> 79 µM (inactive)'),
  ('CC(=O)Nc1ccc(C(=O)N/N=C/c2ccccc2OC(=O)c2ccc(Cl)cc2)cc1', '8.26 µM (active)'),
  ('CCOC(=O)Cn1/c(=N/C(=O)c2cc(-c3cccs3)nc3ccccc23)sc2cc(S(N)(=O)=O)ccc21', '> 79 µM (inactive)');

====

- Tested on: Streptococcus
- procedure.details: GAS UMAA2166 growth inhibition – luminescence, BacTiterGlo, counter-screen for streptokinase expression inhibitor project, dose response (AID 1915);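 further: potency for reduction of bacterial viability or growth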
- Assay type: functional, organism-based
Activity calls are given as the source filed them.
reported.metric: EC50

INSERT INTO results (compound, test_result) VALUES
  ('CC(C)=CCc1c(-c2ccc(O)cc2O)oc2c3c(cc(O)c2c1=O)OC(C)(C)C=C3 [MORUSIN]', '2.96 µM (active)'),
  ('COc1ccc(O)c(/C=N/Nc2nc(Nc3ccccc3)nc(-n3nc(C)cc3C)n2)c1', '2.16 µM (active)'),
  ('COc1ccc(C2CC(=O)c3cnc(N4CCN(Cc5ccccc5)CC4)nc3C2)cc1 (stereo not drawn)', '21.6 µM (active)'),
  ('CC(=O)C1=C(c2ccc(Br)cc2)C(=O)c2ccccc2C1=O', '9.4 µM (active)'),
  ('O=C(NNC(=S)NC(=O)c1cccc([N+](=O)[O-])c1)c1ccc(Br)cc1', '6.56 µM (active)'),
  ('O=C(Nc1ccccc1)Nc1cc(OCC(F)(F)F)cc(OCC(F)(F)F)c1', '9.63 µM (active)'),
  ('CN(C(=O)CSc1nc(O)c(C#N)c(-c2ccc(C(C)(C)C)cc2)n1)C1CCCCC1', '20.3 µM (active)'),
  ('Cc1cc(Cl)c2oc(C(=O)N3CCN(C(=O)c4ccco4)CC3)c(C)c2c1', '24.7 µM (active)');

====

- study.target: Luciferin 4-monooxygenase (Photinus pyralis, UniProt P08659)
- Sequence (P08659 whole entry): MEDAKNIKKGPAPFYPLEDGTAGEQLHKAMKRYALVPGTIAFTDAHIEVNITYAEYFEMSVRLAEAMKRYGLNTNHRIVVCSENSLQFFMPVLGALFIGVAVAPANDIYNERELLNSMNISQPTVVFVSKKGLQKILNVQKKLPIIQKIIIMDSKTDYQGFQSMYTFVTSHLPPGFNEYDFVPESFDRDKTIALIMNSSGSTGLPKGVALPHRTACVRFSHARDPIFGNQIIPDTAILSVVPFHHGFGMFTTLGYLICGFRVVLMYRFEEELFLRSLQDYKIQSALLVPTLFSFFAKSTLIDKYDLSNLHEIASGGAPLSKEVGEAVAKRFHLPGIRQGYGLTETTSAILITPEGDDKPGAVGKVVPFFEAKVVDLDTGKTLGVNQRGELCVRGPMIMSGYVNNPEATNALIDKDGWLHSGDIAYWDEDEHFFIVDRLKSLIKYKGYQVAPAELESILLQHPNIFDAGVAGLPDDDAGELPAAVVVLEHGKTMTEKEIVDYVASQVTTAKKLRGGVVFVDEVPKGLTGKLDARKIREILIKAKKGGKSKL
- procedure.details: inhibition of purified Photinus pyralis luciferase – biochemical, luminescence, dose response (AID 1891)
The source made the active and inactive calls.
EC50 by entry:
reported.metric: EC50

INSERT INTO assay_data (smiles_input, test_result) VALUES
  ('COc1ccc(-c2nc(-c3ccc(Br)cc3)no2)c(OC)c1', '> 112 µM (not active)'),
  ('O=C(Cc1c[nH]c2ccccc12)N/N=C/c1ccccc1O', '> 112 µM (not active)'),
  ('Cc1ccc(-n2c(N)c(C#N)c(-c3ccccc3)c(C#N)c2=O)cc1', '> 112 µM (not active)'),
  ('O=C1Nc2ccccc2C1=Nc1ccc(-c2nnc3n2CCCCC3)cc1', '> 112 µM (not active)'),
  ('N=C(NOC(=O)c1ccccc1Cl)c1ccccn1', '3.94 µM (active)'),
  ('CCOc1cc(/C=N/NC(N)=O)cc(Br)c1OCC(=O)Nc1ccccc1C', '> 112 µM (not active)'),
  ('CC(=O)NCc1cn2c(C)csc2n1', '> 112 µM (not active)'),
  ('COc1ccc(N(CC(=O)N/N=C/c2ccc(-c3ccc([N+](=O)[O-])cc3)o2)S(=O)(=O)c2ccc(C)cc2)cc1', '> 112 µM (not active)'),
  ('Cc1ccc(N(C)/N=C/c2ccc(Cl)cc2Cl)nn1', '> 112 µM (not active)'),
  ('Cc1ccc(N/C=C/C(=O)c2cccs2)cc1', '1.17 µM (active)'),
  ('Cc1ccc(C(=O)N/C(=C\c2cccc([N+](=O)[O-])c2)C(=O)NCc2ccncc2)cc1', '> 112 µM (not active)');
